Values compiled from patent US6211214A.

# ASSAY NOTES: log p (partition coefficient octanol/water, determined experimentally from reversed phase HPLC)
# Assay type: physicochemical
# CONDITIONS USED: reversed phase hplc, B isomer
Quick rule for you: chromatographic logP at 5 or higher means Criterion met, lower means Criterion not met.

# MOLECULE, CLASS ASSIGNMENT
measured = [
    ("CCON=C(C)C(C)Oc1ccc(-c2ccc(C3COC(c4ccccc4Cl)=N3)cc2)cc1Cl (stereo not drawn)", "Criterion met"),
    ("C=CCON=C(C)C(C)Oc1ccc(-c2ccc(C3COC(c4c(F)cccc4Cl)=N3)cc2)cc1 (stereo not drawn)", "Criterion met"),
    ("CON=C(C)C(C)Oc1ccc(-c2ccc(C3COC(c4c(F)cccc4F)=N3)cc2)cc1 (stereo not drawn)", "Criterion not met"),
    ("CON=C(COc1ccc(-c2ccc(C3COC(c4c(F)cccc4F)=N3)cc2)cc1)c1ccc(C)cc1 (stereo not drawn)", "Criterion met"),
    ("CCON=C(COc1ccc(-c2ccc(C3COC(c4c(F)cccc4F)=N3)cc2)cc1)C1(Cl)CC1 (stereo not drawn)", "Criterion not met"),
    ("CON=C(COc1ccc(-c2ccc(C3COC(c4c(F)cccc4F)=N3)cc2)cc1)c1ccc(C)c(C)c1 (stereo not drawn)", "Criterion met"),
    ("CON=C(COc1ccc(-c2ccc(C3COC(c4c(F)cccc4F)=N3)cc2)cc1)c1ccc(Cl)c(C)c1 (stereo not drawn)", "Criterion met"),
    ("CCON=C(COc1ccc(-c2ccc(C3COC(c4c(F)cccc4F)=N3)cc2)cc1)c1cccc(C(F)(F)F)c1 (stereo not drawn)", "Criterion met"),
    ("CON=C(COc1ccc(-c2ccc(C3COC(c4c(F)cccc4F)=N3)cc2)cc1)c1cccc(Cl)c1 (stereo not drawn)", "Criterion met"),
    ("CC(=NO)C(C)Oc1ccc(-c2ccc(C3COC(c4c(F)cccc4F)=N3)cc2)cc1 (stereo not drawn)", "Criterion not met"),
    ("CC(COc1ccc(-c2ccc(C3COC(c4ccccc4Cl)=N3)cc2)cc1)=NOCc1ccccc1 (stereo not drawn)", "Criterion met"),
    ("CCON=C(C)C(C)Oc1ccc(-c2ccc(C3COC(c4ccccc4Cl)=N3)cc2)cc1 (stereo not drawn)", "Criterion met"),
]

====

This listing pairs compounds with measured chromatographic logP.
# ASSAY NOTES: log p (partition coefficient octanol/water, determined experimentally from reversed phase HPLC)
# Type: physicochemical
# CONDITIONS USED: reversed phase hplc

# COMPOUND, chromatographic logP
data = [
    ("CON=C(C)C(C)(C)Oc1ccc(-c2ccc(C3COC(c4c(F)cccc4F)=N3)cc2)cc1 (stereo not shown) [Example 100]", 5.14),
    ("O=C(COc1ccc(-c2ccc(C3COC(c4c(F)cccc4Cl)=N3)cc2)cc1)c1ccccc1 (stereo not shown) [Example 93]", 4.28),
    ("CCC(Oc1ccc(-c2ccc(C3COC(c4c(F)cccc4F)=N3)cc2)cc1)C(=O)OC (stereo not shown) [Example 19]", 4.18),
    ("CC(=O)C(C)Oc1ccc(-c2ccc(C3COC(c4c(F)cccc4F)=N3)cc2)cc1Cl (stereo not shown) [Example 101]", 4.15),
]

====

# ASSAY NOTES: log p (partition coefficient octanol/water, determined experimentally from reversed phase HPLC)
# Type: physicochemical
# CONDITIONS USED: reversed phase hplc, A isomer

# COMPOUND, chromatographic logP
measured = [
    ("CON=C(C)C(C)Oc1ccc(-c2ccc(C3COC(c4c(F)cccc4F)=N3)cc2)cc1Cl (stereo not shown)", 5.06),
    ("CCON=C(COc1ccc(-c2ccc(C3COC(c4c(F)cccc4F)=N3)cc2)cc1)c1cccc(Cl)c1 (stereo not shown)", 5.89),
    ("CON=C(COc1ccc(-c2ccc(C3COC(c4c(F)cccc4F)=N3)cc2)cc1)c1ccc(OC(F)(F)C(F)F)cc1 (stereo not shown)", 5.28),
    ("CC(=NO)C(C)(C)Oc1ccc(-c2ccc(C3COC(c4c(F)cccc4F)=N3)cc2)cc1 (stereo not shown)", 3.82),
    ("CON=C(COc1ccc(-c2ccc(C3COC(c4c(F)cccc4F)=N3)cc2)cc1)c1ccc(C)c(C)c1 (stereo not shown)", 5.58),
    ("CC(=NOC(C)C)C(C)Oc1ccc(-c2ccc(C3COC(c4c(F)cccc4F)=N3)cc2)cc1Cl (stereo not shown)", 5.87),
    ("CC(COc1ccc(-c2ccc(C3COC(c4c(F)cccc4F)=N3)cc2)cc1)=NOCc1ccccc1 (stereo not shown)", 5.15),
]
